B1: PTPN9 (parent)
chain: LKGAFPARLKKVLIVGAPIWFRVP

variants of: B1; test: protein stability index of a GFP-peptide fusion (GPS, HEK-293T) (PSI 1-6); higher = more stable; settings: c terminus: a fixed tail appended;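 also: lentivirally expressed fusions sorted by FACS into six bins by GFP to DsRed ratio, PSI derived from sequencing read proportions per bin multiplied by bin number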
Exercise: state measured protein stability index for each of the variants provided.
Format: numeric value only, no unit, no commentary.

Request: Using the record for L9K , report its protein stability index.
Response: 2.57

Request: Using the record for W20S , report its protein stability index.
Response: 2.41

Request: Using the record for V12R , report its protein stability index.
Response: 2.3

Request: Using the record for P24K , report its protein stability index.
Response: 3.06

Request: Using the record for R8W , report its protein stability index.
Response: 2.35

Request: Using the record for K2L , report its protein stability index.
Response: 3.37

Request: Using the record for A17F , report its protein stability index.
Response: 2.16

Request: Using the record for V15S , report its protein stability index.
Response: 1.37

Request: Using the record for I14L , report its protein stability index.
Response: 2.73

Request: Using the record for R8L , report its protein stability index.
Response: 2.2

Request: Using the record for F5P , report its protein stability index.
Response: 2.49

Request: Using the record for R8G , report its protein stability index.
Response: 2.76

Request: Using the record for R8F , report its protein stability index.
Response: 2.79

Request: Using the record for I19E , report its protein stability index.
Response: 2.64

Request: Using the record for V15D , report its protein stability index.
Response: 2.44

Request: Using the record for K10S , report its protein stability index.
Response: 3.47

Request: Using the record for F5I , report its protein stability index.
Response: 3.12

Request: Using the record for A7Q , report its protein stability index.
Response: 2.24

Request: Using the record for R22P , report its protein stability index.
Response: 3.02

Request: Using the record for L1S , report its protein stability index.
Response: 4.61

Request: Using the record for K2N , report its protein stability index.
Response: 2.18

Request: Using the record for F5T , report its protein stability index.
Response: 2.25
